// read-out pIC50, gathered for RAC-alpha serine/threonine-protein kinase (Homo sapiens, UniProt P31749) from published studies
pIC50 here is simply -log10 of the concentration when that concentration is written in mol/L.

## Task pIC50 of CC(=O)N[C@@H](CCCNC(=N)N)C(=O)Nc1ccc(C(=O)N[C@H](C(=O)N[C@@H](Cc2ccccc2)C(=O)NCc2ccccc2)C(C)C)cc1-c1ccccc1 on RAC-alpha serine/threonine-protein kinase (Homo sapiens, UniProt P31749)?
## Result 3.54

## Task # returns recorded pIC50 (system: RAC-alpha serine/threonine-protein kinase (Homo sapiens, UniProt P31749)) for COCC[C@@H]1C[C@@H](c2ccc(Cl)c(Cl)c2)[C@H](NC(=O)c2cc(-c3c(Cl)cnn3C)c(Cl)o2)CN1
Sequence (P31749 whole entry): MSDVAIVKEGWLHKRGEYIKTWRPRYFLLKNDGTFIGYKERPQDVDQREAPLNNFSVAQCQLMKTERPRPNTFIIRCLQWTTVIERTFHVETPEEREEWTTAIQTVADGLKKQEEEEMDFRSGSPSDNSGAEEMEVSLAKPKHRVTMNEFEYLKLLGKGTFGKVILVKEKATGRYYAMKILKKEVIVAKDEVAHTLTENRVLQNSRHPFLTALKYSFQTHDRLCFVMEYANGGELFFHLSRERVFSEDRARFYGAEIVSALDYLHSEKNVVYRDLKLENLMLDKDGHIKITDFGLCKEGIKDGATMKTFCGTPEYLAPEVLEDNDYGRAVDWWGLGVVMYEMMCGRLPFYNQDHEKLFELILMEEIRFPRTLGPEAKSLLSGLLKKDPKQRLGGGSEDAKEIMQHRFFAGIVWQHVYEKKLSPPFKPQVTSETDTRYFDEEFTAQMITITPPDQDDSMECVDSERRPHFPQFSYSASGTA
## Result 8.15

## Task Can you look up pIC50 on RAC-alpha serine/threonine-protein kinase (Homo sapiens, UniProt P31749) for Cc1occc1-c1nc(N)c(OC[C@@H](N)Cc2ccccc2)cc1-c1cnc2[nH]nc(C)c2n1 ?
## Result 8.22

## Task Notebook: pull reported pIC50 for RAC-alpha serine/threonine-protein kinase (Homo sapiens, UniProt P31749), entry O=C(NCc1ccccc1)c1cc2c(-c3ccccc3)n[nH]c2s1
## Result 4.82

* * *

From various publications: IC50 for RAC-alpha serine/threonine-protein kinase (Homo sapiens).
A number alone suffices; assume nM.

## Task What does the data say about its IC50? Entry: N#Cc1cccc2c1nn1cc(-c3ccccc3)c(-c3ccc(C4(N)CCC4)cc3)nc21
## Result 49

## Task Entry Nc1ncnc(N2CCN(C(=O)C(N)Cc3ccc(Cl)cc3)CC2)c1Cl (racemic) : reported IC50 = ?
## Result 17

## Task State the recorded IC50 for this entry: COc1cc2ncc3c(N)nc(-c4cncc(OC[C@@H](N)CC(C)C)c4)cc3c2cc1OC
## Result 905

* * *

pIC50: −log10 of the molar value.
Compiled record: pIC50 values for RAC-alpha serine/threonine-protein kinase (Homo sapiens) across several sources.

## Task // lookup pIC50 | system=RAC-alpha serine/threonine-protein kinase (Homo sapiens) | key= Cc1cc(C(=O)NC(C)(C)C)cc(C#Cc2ccc3c4c(oc3c2)C(C)(C)c2cc(NS(C)(=O)=O)ccc2C4=O)n1
## Result < 5.00

## Task Write down the reported pIC50 of CCn1c(-c2nonc2N)nc2c(C#CC(C)(C)O)nc(O[C@H](CN)c3ccccc3)cc21 , test system: RAC-alpha serine/threonine-protein kinase (Homo sapiens).
## Result 8.52

## Task I'm curious: which pIC50 was measured for Cc1n[nH]c2sc(C(=O)NC3CCCCC3)cc12 tested on RAC-alpha serine/threonine-protein kinase (Homo sapiens)?
## Result < 4.70

* * *

Header: IC50 / RAC-alpha serine/threonine-protein kinase (Homo sapiens, UniProt P31749) / multiple publications

## Task Short answer please: IC50, RAC-alpha serine/threonine-protein kinase (Homo sapiens, UniProt P31749), entry O=c1[nH]cnc2[nH]c(-c3ccnc(/C=C/c4ccc(CN5CCOCC5)cc4)c3)cc12
## Result > 10 µM

## Task Fill in the recorded IC50 for this compound, with RAC-alpha serine/threonine-protein kinase (Homo sapiens, UniProt P31749) as test system: O=C(NC1CCCCC1)c1cc2c(-c3ccccc3)n[nH]c2s1
## Result > 20 µM

## Task Field: IC50 (RAC-alpha serine/threonine-protein kinase (Homo sapiens, UniProt P31749)). Entry: COc1cc(C)c(Sc2cnc(NC(=O)c3ccc(CNC(C)C(C)(C)C)cc3)s2)cc1C(=O)N1CCN(C(C)=O)CC1 (stereo not given)
## Result > 50 µM

## Task So what IC50 did CN1c2ccc(NCc3ccc(C(C)(C)C)cc3)cc2-c2c(cnn2C)S1(=O)=O get with RAC-alpha serine/threonine-protein kinase (Homo sapiens, UniProt P31749)?
## Result > 10 µM

## Task Param readout = IC50; param system = RAC-alpha serine/threonine-protein kinase (Homo sapiens, UniProt P31749); param query = COc1cc(Nc2c(C#N)cnc3cc(C#CCCN4CCN(C)CC4)c(OC)cc23)c(Cl)cc1Cl ; response: value
## Result > 5 µM
